target: Orexin type 1 (OX1R) receptor (Homo sapiens); construct: expressed in transfected cells; host or cells: CHO cells (G418 selection); assay: In vitro orexin antagonism assay: intracellular calcium measurement (FLIPR), orexin-A 3 nM as agonist; assay type: cell-based; conditions: read-out: OX1R, % Inh. @ 1 uM
Sequence (O43613 whole entry): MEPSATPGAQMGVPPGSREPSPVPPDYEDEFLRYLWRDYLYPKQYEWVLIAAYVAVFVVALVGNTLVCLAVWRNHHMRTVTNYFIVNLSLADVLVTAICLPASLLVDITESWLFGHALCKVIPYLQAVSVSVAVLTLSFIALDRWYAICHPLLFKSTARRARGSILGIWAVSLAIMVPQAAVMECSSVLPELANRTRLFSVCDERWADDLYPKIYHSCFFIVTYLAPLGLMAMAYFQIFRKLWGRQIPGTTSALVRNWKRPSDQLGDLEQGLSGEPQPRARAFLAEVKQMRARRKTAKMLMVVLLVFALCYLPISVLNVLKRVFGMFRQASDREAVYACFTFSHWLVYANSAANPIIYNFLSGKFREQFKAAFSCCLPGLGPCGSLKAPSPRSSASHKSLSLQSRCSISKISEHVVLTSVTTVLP
endpointName: inhibition at 1 µM (%)
Enter your answer as a number in %; do not include the unit.

Sample records with inhibition at 1 µM:
* O=C(c1c(-c2ccccc2F)nn2ccccc12)N1CC[C@H]1Cn1ccc(-c2ccc(F)cc2)n1 | 59
* O=C(c1nn2ccccc2c1-c1ccccc1)N1CCC[C@H]1CNc1ccc(C(F)(F)F)cn1 | 99.5
* O=C(c1c(-c2ccccc2)nc2ccccn12)N1CCC[C@H]1COc1ccc(Br)nc1 | 8.2
* C[C@@]1(COc2ccc(C(F)(F)F)cn2)CCCN1C(=O)c1c(-c2ccccn2)nn2ccccc12 | 100
* O=C(c1nn2ccccc2c1-c1ccccc1)N1CCC[C@H]1Cn1cc(-c2ccc(F)cn2)cn1 | 100
* O=C(c1c(-c2ccccc2F)nn2ccccc12)N1CCC[C@H]1Cn1ccc(-c2ccccn2)n1 | 100

Reported Orexin type 1 (OX1R) receptor (Homo sapiens) inhibition at 1 µM for item `O=C(c1c(-c2ccccn2)nn2ccccc12)N1CCC[C@H]1Cn1ccc(-c2ccccc2)n1` was 100

`O=C(c1nn2ccccc2c1-c1ccccn1)N1CCC[C@H]1Cc1nc(-c2ccc(F)cn2)no1` on Orexin type 1 (OX1R) receptor (Homo sapiens) gives inhibition at 1 µM = 93

// compound `[2H]C1([2H])CC[C@@]([2H])(Cn2ccc(-c3ccc(F)cc3)n2)N1C(=O)c1c(-c2ccccc2)nc2ccc(F)cn12` , assay Orexin type 1 (OX1R) receptor (Homo sapiens), inhibition at 1 µM value: 95

The reported Orexin type 1 (OX1R) receptor (Homo sapiens) inhibition at 1 µM of `O=C(c1c(-c2ccccc2)nn2c1COCC2)N1CCOC[C@H]1COc1ccc(C(F)(F)F)cn1` is 12

Reading of inhibition at 1 µM for `O=C(c1c(-c2ccccc2)nn2ccccc12)N1CCC[C@H]1COc1ccc(Br)nc1` with Orexin type 1 (OX1R) receptor (Homo sapiens): 25.4

inhibition at 1 µM on Orexin type 1 (OX1R) receptor (Homo sapiens) for `C[C@@]1(COc2cnc(C(F)(F)F)cn2)CCCN1C(=O)c1c(-c2ccccc2)nn2cccnc12` is 72

inhibition at 1 µM value, target or system Orexin type 1 (OX1R) receptor (Homo sapiens), for `O=C(c1nn2c(c1-c1ccccc1)COCC2)N1C2CCC1(COc1ccc(C(F)(F)F)cn1)CC2` : 86

// assay Orexin type 1 (OX1R) receptor (Homo sapiens), entry `C[C@@H]1CCCN(C(=O)c2c(-c3ccc(F)cc3)nn3ccccc23)[C@@H]1CNc1ccc(C(F)(F)F)cn1` , inhibition at 1 µM value = 98.4

Short answer on Orexin type 1 (OX1R) receptor (Homo sapiens) for `C[C@@H]1CCCN(C(=O)c2c(-c3ccccc3)nn3ccccc23)[C@@H]1CNc1ncc(F)cn1` , inhibition at 1 µM: 82.2

Assay Orexin type 1 (OX1R) receptor (Homo sapiens), sample `O=C(c1c(-c2ccccc2)nc2cc(F)ccn12)N1CCC[C@H]1COc1ccc(C(F)(F)F)cn1` , inhibition at 1 µM read: 79.2

Recorded inhibition at 1 µM for `O=C(c1nc2ccccn2c1-c1ccccn1)N1CCC[C@H]1Cn1cc(-c2ccc(F)cn2)cn1` on Orexin type 1 (OX1R) receptor (Homo sapiens) was 100

Summary: `O=C(c1nc2ccccn2c1-c1ccccc1)N1[C@H](Cn2ccc(-c3ccc(F)cn3)n2)C[C@@H]2C[C@@H]21` , Orexin type 1 (OX1R) receptor (Homo sapiens), inhibition at 1 µM = 99

Measured on Orexin type 1 (OX1R) receptor (Homo sapiens), `O=C(c1nn2ccccc2c1-c1ccccn1)N1CCC[C@H]1Cc1nc(-c2ccccn2)no1` has a documented inhibition at 1 µM of 93

// assay Orexin type 1 (OX1R) receptor (Homo sapiens), entry `O=C(c1c(-c2ccccc2)nn2c1COCC2)N1CCC[C@H]1Cn1ccc(-c2ccc(F)cn2)n1` , inhibition at 1 µM value = 41

For the compound `O=C(c1nn2cccnc2c1-c1ccccn1)N1CCC[C@H]1Cn1ccc(-c2ccccn2)n1` , the measured inhibition at 1 µM on Orexin type 1 (OX1R) receptor (Homo sapiens) was 94

Kindly note: Orexin type 1 (OX1R) receptor (Homo sapiens), `O=C(c1nn2ccccc2c1-c1ccccn1)N1CCC[C@H]1Cn1cc(-c2ccccn2)cn1` , inhibition at 1 µM value reported: 100
